Test system: PmTbr T-box DNA-binding domain (GST fusion);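 note: 200 nM protein in PBS on universal arrays averaged over duplicate arrays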
Sequence: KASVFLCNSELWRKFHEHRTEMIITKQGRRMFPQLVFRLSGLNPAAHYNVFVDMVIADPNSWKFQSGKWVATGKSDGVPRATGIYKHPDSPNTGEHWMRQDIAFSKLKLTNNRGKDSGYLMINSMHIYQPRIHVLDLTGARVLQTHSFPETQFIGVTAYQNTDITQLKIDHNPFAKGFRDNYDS
Test: PBM E-score of 8-mer (E-score (dimensionless, -0.5 to 0.5)); Tbr is Tbrain of the sea star Patiria miniata (Pm) or the sea urchin Strongylocentrotus purpuratus (Sp); higher = stronger binding preference
Conditions: the construct has about 5 more residues each side
The full ranking holds about 33,000 sequences; the median of “E-score (dimensionless, -0.5 to 0.5)” is about -0.049, and the highest 2% start at about 0.37. What follows is part of a selection rich in the highest values, with near analogues and random picks from the rest.
Decide using PBM E-score of 8-mer: a value greater than or equal to 0.2 is Y, a smaller one is N.

>>> print(df.to_string())
    item_sequence                               test_system  classification
 0       ACTCTTAG  PmTbr T-box DNA-binding domain (GST fusion)               N
 1       ACAACTGA  PmTbr T-box DNA-binding domain (GST fusion)               N
 2       GGGCGCGA  PmTbr T-box DNA-binding domain (GST fusion)               Y
 3       CCATCACG  PmTbr T-box DNA-binding domain (GST fusion)               N
 4       AAACATTC  PmTbr T-box DNA-binding domain (GST fusion)               N
 5       AGGCGCGG  PmTbr T-box DNA-binding domain (GST fusion)               Y
 6       AAACATTG  PmTbr T-box DNA-binding domain (GST fusion)               N
 7       ACACATTA  PmTbr T-box DNA-binding domain (GST fusion)               Y
 8       CAGTTCAC  PmTbr T-box DNA-binding domain (GST fusion)               Y
 9       AAGATGGA  PmTbr T-box DNA-binding domain (GST fusion)               N
10       CGGGCAGC  PmTbr T-box DNA-binding domain (GST fusion)               N
11       ATGTAGAC  PmTbr T-box DNA-binding domain (GST fusion)               N
12       GGGTGATA  PmTbr T-box DNA-binding domain (GST fusion)               Y
13       AGGCGCGC  PmTbr T-box DNA-binding domain (GST fusion)               N
14       ACCTGGCA  PmTbr T-box DNA-binding domain (GST fusion)               Y
15       GGGGGCGA  PmTbr T-box DNA-binding domain (GST fusion)               N
16       CTCGCTAC  PmTbr T-box DNA-binding domain (GST fusion)               N
17       GCACTTAC  PmTbr T-box DNA-binding domain (GST fusion)               N
18       GGGCGCTA  PmTbr T-box DNA-binding domain (GST fusion)               Y
19       CGGCGCTA  PmTbr T-box DNA-binding domain (GST fusion)               Y
20       AGGCGCGA  PmTbr T-box DNA-binding domain (GST fusion)               Y
21       CGGCGCGA  PmTbr T-box DNA-binding domain (GST fusion)               Y
22       AGAAGGTG  PmTbr T-box DNA-binding domain (GST fusion)               Y
23       AGGCGAGC  PmTbr T-box DNA-binding domain (GST fusion)               N
24       ATAAGGTA  PmTbr T-box DNA-binding domain (GST fusion)               N
25       ACACATAT  PmTbr T-box DNA-binding domain (GST fusion)               Y
26       AGGCGCTA  PmTbr T-box DNA-binding domain (GST fusion)               Y
27       CCACATTC  PmTbr T-box DNA-binding domain (GST fusion)               N
28       ACACTTAC  PmTbr T-box DNA-binding domain (GST fusion)               Y
29       GAACCGTC  PmTbr T-box DNA-binding domain (GST fusion)               N
30       ACACATAA  PmTbr T-box DNA-binding domain (GST fusion)               Y
31       ACACATAG  PmTbr T-box DNA-binding domain (GST fusion)               Y
32       CGAGCAAA  PmTbr T-box DNA-binding domain (GST fusion)               N
33       AACTTAAT  PmTbr T-box DNA-binding domain (GST fusion)               N
34       CACAGCCG  PmTbr T-box DNA-binding domain (GST fusion)               N
35       ACACATTG  PmTbr T-box DNA-binding domain (GST fusion)               Y
36       CAAGTTGA  PmTbr T-box DNA-binding domain (GST fusion)               N
37       GTCTCTCA  PmTbr T-box DNA-binding domain (GST fusion)               N
38       AGGTTTGG  PmTbr T-box DNA-binding domain (GST fusion)               N
39       AGAAGGTA  PmTbr T-box DNA-binding domain (GST fusion)               N
40       CGGTGATA  PmTbr T-box DNA-binding domain (GST fusion)               N
41       ATAAGGTC  PmTbr T-box DNA-binding domain (GST fusion)               N
42       CCACTTAG  PmTbr T-box DNA-binding domain (GST fusion)               N
43       ACTCTTAT  PmTbr T-box DNA-binding domain (GST fusion)               N
44       CCCGATTA  PmTbr T-box DNA-binding domain (GST fusion)               N

Taken from the supplement of paper PMC4166925.
